Experiment: Plasma pharmacokinetics after oral multi-dose anatabine polacrilex
Assay type: in vivo, Sprague-Dawley rats
Settings: male, Sprague-Dawley, rat, plasma, oral, 2 mg/kg BW, Avg. Conc. of anatabine in plasma, dose group 2, male, 270 min
measured_quantity: concentration at 270 min
Please answer using a numeric value trailed by its unit.

Field concentration at 270 min (entry C1=CCC(c2cccnc2)NC1 (racemic) [Anatabine, 1,2,3,6-tetrahydro-[2,3′]bipyridinyl] ) reads 303 ng/mL

====

Assay: Plasma pharmacokinetics after oral multi-dose anatabine polacrilex
Assay type: in vivo, Sprague-Dawley rats
Conditions: female, Sprague-Dawley, rat, plasma, po, 6 mg/kg, female rats, after dose 2, mean; read-out: Tmax(2)
measured_quantity: Tmax (min)
Your answer should be a plain number; it is taken to be in min.

Field Tmax (entry C1=CCC(c2cccnc2)NC1 (racemic) [Anatabine, 1,2,3,6-tetrahydro-[2,3′]bipyridinyl] ) reads 37.8

====

Experiment: Plasma toxicokinetics after single i.v. bolus
Assay type: in vivo, Sprague-Dawley rats
Settings: male, Sprague-Dawley, rat, plasma, intravenous, 0.1 mg/kg, Anatabine 0.1 mg/kg; male; 4 hr; read-out: Avg. Conc. rat plasma
measured_quantity: concentration at 4 h (ng/mL)
Your answer should be a plain number; it is taken to be in ng/mL.

Field concentration at 4 h (entry C1=CCC(c2cccnc2)NC1 (racemic) [Anatabine, 1,2,3,6-tetrahydro-[2,3′]bipyridinyl] ) reads 3

====

Assay: Plasma toxicokinetics after single i.v. bolus
Format: in vivo, Sprague-Dawley rats
Conditions: both sexes, Sprague-Dawley, rat, plasma, intravenous, 0.1 mg/kg, Concentration of anatabine in rat plasma, Anatabine 0.1 mg/kg, Rat Plasma, 2 hr, individual rats
measured_quantity: concentration at 2 h

Field concentration at 2 h (entry C1=CCC(c2cccnc2)NC1 (racemic) [Anatabine, 1,2,3,6-tetrahydro-[2,3′]bipyridinyl] ) reads 6 ng/mL

====

Assay: Concentration in brain extracts after single i.v. bolus
Type: in vivo, Sprague-Dawley rats
Conditions: both sexes, Sprague-Dawley, rat, brain, intravenous, 0.1 mg/kg, Anatabine 0.1 mg/kg; male and female; 24 hr; read-out: Avg. Conc. rat brain, combined male and female
measured_quantity: concentration at 24 h
Please answer using a numeric value trailed by its unit.

Field concentration at 24 h (entry C1=CCC(c2cccnc2)NC1 (racemic) [Anatabine, 1,2,3,6-tetrahydro-[2,3′]bipyridinyl] ) reads 2.5 ng/g

====

Assay: Plasma pharmacokinetics after oral multi-dose anatabine polacrilex
Assay type: in vivo, Sprague-Dawley rats
Conditions: both sexes, Sprague-Dawley, rat, plasma, oral, 2 mg/kg BW, Avg. Conc. of anatabine in plasma, Male and Female, dose group 2, combined male and female, 235 min
Experimental: This study consisted of two groups of 8 animals each, 4 males and 4 females. Two formulations were prepared; one for each of the two treatment groups. […] Sample preparation. […] The amount of the test agent in the supernatant was determined by LC/MS/MS. Analysis. Samples were analyzed by LC/MS/MS using an Agilent 6410 mass spectrometer coupled with an Agilent 1200 high pressure liquid chromatography (HPLC) and a CTC PAL chilled autosampler, all controlled by MassHunter software (Agilent). […]
measured_quantity: concentration at 235 min (ng/mL)
Your answer should be a plain number; it is taken to be in ng/mL.

Field concentration at 235 min (entry C1=CCC(c2cccnc2)NC1 (racemic) [Anatabine, 1,2,3,6-tetrahydro-[2,3′]bipyridinyl] ) reads 63
